Test system: immobilized enzyme (acylase) of Bacillus circulans M-1123-5 on Sepharose 4B
Experiment: Reactivity of TA esters by batch process
Type: biochemical
Settings: 7-ACA to CET, 7-ACA 30 mg in 10 ml, pH 7.0, 37° C., 3 hours
Quantity measured: Conversion rate (%)
Response body: numeric value in %, unit text excluded.

Guide cases for Conversion rate (%), answers given:
Q: Return Conversion rate (%) measured with immobilized enzyme (acylase) of Bacillus circulans M-1123-5 on Sepharose 4B given this compound: `COCCOCCOCCOCCOCCOCCOCCOCCOC(=O)Cc1cccs1`
Ans: 68.2

Q: Param readout= Conversion rate (%); system= immobilized enzyme (acylase) of Bacillus circulans M-1123-5 on Sepharose 4B; entry= `O=C(Cc1cccs1)OCCOCCOCCOCCOCCOCCOCCOCCO` ; returns value.
Ans: 76.2

Q: Please state recorded Conversion rate (%) (tested on immobilized enzyme (acylase) of Bacillus circulans M-1123-5 on Sepharose 4B) of O=C(Cc1cccs1)OCC(O)CO (stereo not drawn)
Ans: 73.7

***
Q: I'm curious: which Conversion rate (%) was measured for `O=C(Cc1cccs1)OCCOCCOCCOCCO` tested on immobilized enzyme (acylase) of Bacillus circulans M-1123-5 on Sepharose 4B?
Ans: 77.1

Q: Enter reported Conversion rate (%) observed with immobilized enzyme (acylase) of Bacillus circulans M-1123-5 on Sepharose 4B for `O=C(Cc1cccs1)OCCOCCOCCOCCOCCO`
Ans: 80.6

Q: Find Conversion rate (%) (immobilized enzyme (acylase) of Bacillus circulans M-1123-5 on Sepharose 4B) for the entry `COCCOCCOCCOCCOC(=O)Cc1cccs1`
Ans: 73.3
